Target: UniProt:Q9UM73
Assay: Test for measurement of ALK inhibition (ELISA, GST-PLCγ1 substrate, luminescence)
Assay type: biochemical
Conditions: enzymatic IC50 on ALK, 250 μM ATP, class symbols; read-out: IC50 (ALK)
pIC50: −log10 of the molar value.
# pIC50 per record follows

Req: Which pIC50 is listed for `CCn1c(=O)c2c(-c3ccc(O)c(C(F)(F)F)c3)nc3[nH]nc(C)c3c2c2ccc(N3CCNCC3)cc21` ?
Resp: > 7.00

Req: // returns reported pIC50 for input `Cc1n[nH]c2nc(-c3ccc(O)cc3)c3c(=O)n(CCN4CCNCC4)c4ccccc4c3c12`
Resp: 6.00 to 7.00

Req: Fill in the blank: the reported pIC50 of `Cc1n[nH]c2nc(-c3ccc(O)cc3)c3c(=O)[nH]c4cc(N5CCN(C6CCN(C)CC6)CC5)ccc4c3c12` is ____.
Resp: > 7.00

Req: pIC50 lookup needed for `Nc1n[nH]c2nc(-c3ccc(O)cc3)c3c(=O)[nH]ccc3c12` , thanks.
Resp: 5.00 to 6.00

Req: Using the record for `Cc1n[nH]c2nc(-c3ccc(O)cc3)c3c(=O)n(CCCN(C)C)c4ccccc4c3c12` , report its pIC50.
Resp: > 7.00

Req: What pIC50 value was documented for this compound, `Cc1n[nH]c2nc(-c3cc(F)cc(F)c3)c3c(=O)[nH]c4cc(N5CCNCC5)ccc4c3c12` ?
Resp: 5.00 to 6.00

Query compound follows.
Req: Requested read-out: pIC50. Entry: `Cc1n[nH]c2nc(-c3ccc(O)cc3)c3c(=O)n(CCCN(C)C)c4cc(N5CCNCC5)ccc4c3c12`
Resp: > 7.00

###

Biological target: ALK (Homo sapiens)
Assay: Test for measurement of ALK inhibition (ELISA, GST-PLCγ1 substrate, luminescence)
Type: biochemical
Settings: comparative tests; read-out: Alk enzymatic inhibition (IC50)
READOUT TYPE: IC50 (nM)

(I) Cc1n[nH]c2nc(-c3ccc(O)cc3)c3cnc4ccccc4c3c12
(II) Cc1n[nH]c2nc(-c3ccc(O)cc3)c3c(=O)[nH]c4ccccc4c3c12
(III) Cc1n[nH]c2nc(-c3ccc(O)cc3)c3ccccc3c12 [Comparative compound 98, reference compound]
Req: Rank the molecules listed above in increasing order of IC50. Record the ranking as a list of labels in the requested order.
Resp: II, I, III
(II: 2.5 nM, I: 35 nM, III: 70 nM)

###

Biological target: ALK (Homo sapiens, UniProt Q9UM73)
Sequence (Q9UM73 19-1620): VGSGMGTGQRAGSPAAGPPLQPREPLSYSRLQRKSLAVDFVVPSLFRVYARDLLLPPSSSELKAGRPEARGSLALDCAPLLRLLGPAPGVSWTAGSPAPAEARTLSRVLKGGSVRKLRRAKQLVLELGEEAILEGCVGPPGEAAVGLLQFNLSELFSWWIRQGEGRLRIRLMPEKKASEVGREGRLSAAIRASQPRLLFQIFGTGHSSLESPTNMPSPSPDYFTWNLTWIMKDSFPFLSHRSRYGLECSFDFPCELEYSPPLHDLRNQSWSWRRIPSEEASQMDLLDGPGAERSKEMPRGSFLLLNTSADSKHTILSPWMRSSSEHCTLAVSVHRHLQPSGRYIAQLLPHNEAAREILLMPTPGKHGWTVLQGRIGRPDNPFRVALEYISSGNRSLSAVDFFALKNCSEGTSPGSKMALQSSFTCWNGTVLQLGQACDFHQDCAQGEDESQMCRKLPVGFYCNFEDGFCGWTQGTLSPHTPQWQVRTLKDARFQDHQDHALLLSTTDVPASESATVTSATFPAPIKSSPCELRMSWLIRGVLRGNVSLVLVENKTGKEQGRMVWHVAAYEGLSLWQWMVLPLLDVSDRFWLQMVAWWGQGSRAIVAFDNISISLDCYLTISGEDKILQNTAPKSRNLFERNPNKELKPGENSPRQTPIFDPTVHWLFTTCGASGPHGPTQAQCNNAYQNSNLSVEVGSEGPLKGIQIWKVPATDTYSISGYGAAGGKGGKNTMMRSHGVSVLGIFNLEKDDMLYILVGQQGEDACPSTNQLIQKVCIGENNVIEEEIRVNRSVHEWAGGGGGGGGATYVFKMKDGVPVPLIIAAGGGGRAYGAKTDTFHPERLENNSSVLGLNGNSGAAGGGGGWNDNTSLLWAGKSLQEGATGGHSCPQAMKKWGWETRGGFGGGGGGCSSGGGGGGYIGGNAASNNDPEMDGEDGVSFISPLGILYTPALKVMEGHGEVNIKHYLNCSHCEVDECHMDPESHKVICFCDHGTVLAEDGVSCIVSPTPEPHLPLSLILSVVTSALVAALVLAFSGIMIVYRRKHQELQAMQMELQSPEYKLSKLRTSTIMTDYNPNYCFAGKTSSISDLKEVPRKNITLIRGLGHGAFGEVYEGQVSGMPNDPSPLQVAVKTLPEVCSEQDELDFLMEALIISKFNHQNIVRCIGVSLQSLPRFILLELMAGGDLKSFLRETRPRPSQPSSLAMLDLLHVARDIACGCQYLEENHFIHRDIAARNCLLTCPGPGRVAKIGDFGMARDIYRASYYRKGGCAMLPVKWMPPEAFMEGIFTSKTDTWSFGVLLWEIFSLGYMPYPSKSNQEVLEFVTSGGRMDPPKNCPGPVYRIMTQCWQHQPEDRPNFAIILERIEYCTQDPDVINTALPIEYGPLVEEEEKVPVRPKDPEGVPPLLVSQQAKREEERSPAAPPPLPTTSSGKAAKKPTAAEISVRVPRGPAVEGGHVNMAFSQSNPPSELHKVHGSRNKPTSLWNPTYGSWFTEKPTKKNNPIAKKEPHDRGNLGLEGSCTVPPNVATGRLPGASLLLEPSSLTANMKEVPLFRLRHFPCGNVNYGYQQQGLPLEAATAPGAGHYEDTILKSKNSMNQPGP
Test: Test for measurement of ALK inhibition (ELISA, GST-PLCγ1 substrate, luminescence)
Format: biochemical
Conditions: enzymatic IC50 on ALK, 250 μM ATP, class symbols; read-out: IC50 (ALK)
pIC50: −log10 of the molar value.
READOUT TYPE: pIC50

Some solved entries appear below for comparison.
Req: Checklist item: pIC50 tested on ALK (Homo sapiens, UniProt Q9UM73), entry CN1CCN(c2ccc(C(=O)Nc3n[nH]c4nc(-c5ccc(O)cc5)c5c(=O)[nH]c6ccccc6c5c34)cc2)CC1 [Compound 52] , value?
Resp: > 7.00

Req: Please tell me: pIC50 of Cc1n[nH]c2nc(-c3ccc(O)cc3)c3c(=O)[nH]c4cc(N5CCNCC5)ccc4c3c12 [Compound 04] , system ALK (Homo sapiens, UniProt Q9UM73)?
Resp: > 7.00

Req: Lab note: need pIC50 with ALK (Homo sapiens, UniProt Q9UM73) for entry CCn1c(=O)c2c(-c3ccc(O)cc3)nc3[nH]nc(N)c3c2c2ccc(N3CCNCC3)cc21 [Compound 37] , please look it up.
Resp: > 7.00

---
Req: Which measured pIC50 belongs to CCOc1cc(F)cc(-c2nc3[nH]nc(C)c3c3c2c(=O)n(CC)c2cc(N4CCNCC4)ccc32)c1 [Compound 33] , tested on ALK (Homo sapiens, UniProt Q9UM73)?
Resp: > 7.00

Req: Which measured pIC50 belongs to Cc1n[nH]c2nc(-c3ccc(O)cc3)c3c(=O)oc(-c4ccccc4)cc3c12 [Compound 28] , tested on ALK (Homo sapiens, UniProt Q9UM73)?
Resp: 6.00 to 7.00

Req: Find pIC50 (ALK (Homo sapiens, UniProt Q9UM73)) for the entry Nc1n[nH]c2nc(-c3ccc(O)cc3F)c3c(=O)[nH]c4ccccc4c3c12 [Compound 38]
Resp: > 7.00

Req: Could you share what pIC50 was measured for CCn1c(=O)c2c(-c3cc(F)cc(F)c3)nc3[nH]nc(N)c3c2c2ccc(N3CCNCC3)cc21 [Compound 55] , tested on ALK (Homo sapiens, UniProt Q9UM73)?
Resp: 6.00 to 7.00

Req: Item CC(=O)Oc1ccc(-c2nc3[nH]nc(C)c3c3c2c(=O)[nH]c2cc(N4CCNCC4)ccc23)cc1 [Compound 17] with ALK (Homo sapiens, UniProt Q9UM73) - pIC50?
Resp: > 7.00

Req: Request body: readout pIC50, system ALK (Homo sapiens, UniProt Q9UM73), query Nc1n[nH]c2nc(-c3cc(F)cc(F)c3)c3c(=O)[nH]c4cc(N5CCNCC5)ccc4c3c12 [Compound 36] . Return the value.
Resp: 5.00 to 6.00

Req: Give pIC50 (ALK (Homo sapiens, UniProt Q9UM73)) of the following molecule: CCOc1nc2cc(N3CCNCC3)ccc2c2c1c(-c1ccc(O)c(C(F)(F)F)c1)nc1[nH]nc(C)c12 [Compound 47]
Resp: 6.00 to 7.00

Req: Value wanted: pIC50 (ALK (Homo sapiens, UniProt Q9UM73)) of entry Nc1n[nH]c2nc(-c3ccc(O)cc3)c3c(=O)[nH]c4cc(N5CCNCC5)ccc4c3c12 [Compound 32]
Resp: > 7.00

Req: Form field - read-out: pIC50; system: ALK (Homo sapiens, UniProt Q9UM73); submitted item: Nc1n[nH]c2nc(-c3ccc(O)cc3)c3c(=O)[nH]c4ccc(N5CCNCC5)cc4c3c12 [Compound 25]
Resp: > 7.00

Req: Give recorded pIC50 with ALK (Homo sapiens, UniProt Q9UM73) for the following molecule: Cc1n[nH]c2nc(-c3ccc(O)cc3)c3c(=O)[nH]c4cc(OCCCN5CCNCC5)ccc4c3c12 [Compound 13]
Resp: > 7.00

Req: State its pIC50 on ALK (Homo sapiens, UniProt Q9UM73): CC(=O)Nc1n[nH]c2nc(-c3ccc(O)cc3)c3c(=O)[nH]c4ccccc4c3c12 [Compound 23]
Resp: > 7.00

Req: Please state recorded pIC50 (tested on ALK (Homo sapiens, UniProt Q9UM73)) of CCOc1ccc(-c2nc3[nH]nc(C)c3c3c2c(=O)[nH]c2cc(N4CCNCC4)ccc23)cc1 [Compound 19]
Resp: > 7.00

###

Target: ALK (Homo sapiens)
Assay: Test for measurement of ALK inhibition (ELISA, GST-PLCγ1 substrate, luminescence)
Format: biochemical
Conditions: enzymatic IC50 on ALK, 250 μM ATP, class symbols; read-out: IC50 (ALK)
READOUT TYPE: IC50

Please review the entries below; each comes with its answer.
Req: Any idea what its IC50 is? The compound is `CCn1c(=O)c2c(-c3ccc(O)cc3)nc3[nH]nc(C)c3c2c2ccc(N3CCNCC3)cc21`
Resp: < 100 nM

Req: // IC50 lookup, key: `Cc1n[nH]c2nc(-c3ccc(O)cc3)c3c(=O)[nH]ccc3c12`
Resp: 1000 to 10000 nM

Req: Look up IC50: `CCn1ccc2c(c(-c3ccc(O)cc3)nc3[nH]nc(C)c32)c1=O`
Resp: 1000 to 10000 nM

Req: I would be grateful if you could share the reported IC50 for `Cn1ccc2c(c(-c3cc(F)cc(F)c3)nc3[nH]nc(N)c32)c1=O` .
Resp: 1000 to 10000 nM

Continuing:
Req: Requested read-out: IC50. Entry: `Cc1n[nH]c2nc(-c3ccc(O)cc3)c3c(c12)CCNC3=O`
Resp: < 100 nM

Req: Quick one: IC50 for `O=C1c2cc(N3CCNCC3)ccc2-c2c1c(-c1c(F)ccc(F)c1F)nc1[nH]nc(-c3cccs3)c21` ?
Resp: 1000 to 10000 nM

Req: Requested read-out: IC50. Entry: `COc1ccc(-c2nc3[nH]nc(N)c3c3c2c(=O)[nH]c2ccc(N4CCNCC4)cc23)cc1`
Resp: 1000 to 10000 nM

Req: Query: IC50; subject: `Cc1n[nH]c2nc(-c3ccc(O)cc3)c3c(=O)[nH]c4cc(N5CC[C@@H](N)C5)ccc4c3c12`
Resp: < 100 nM

Req: Please report the recorded IC50 for `Cc1n[nH]c2nc(-c3ccc(O)cc3)c3c(=O)[nH]c4cc(N5CCC(N)CC5)ccc4c3c12` .
Resp: < 100 nM

Req: Could you tell me which IC50 is on file for `CCOC(=O)Oc1ccc(-c2nc3c(c(C)nn3C(=O)OCC)c3c2c(=O)[nH]c2cc(N4CCN(C(=O)OCC)CC4)ccc23)cc1` ?
Resp: 1000 to 10000 nM

Req: Suppose we examine the compound `Cc1n[nH]c2nc(-c3ccc(O)cc3)c3c(=O)oc4ccccc4c3c12` ; what IC50 value has been reported?
Resp: 100 to 1000 nM

Req: Look up IC50: `Cc1n[nH]c2nc(-c3ccc(O)c(C(=O)O)c3)c3c(=O)[nH]c4cc(N5CCNCC5)ccc4c3c12`
Resp: 1000 to 10000 nM

Req: Name the recorded IC50 for `COc1ccc(-c2nc3[nH]nc(N)c3c3c2c(=O)[nH]c2cc(N4CCNCC4)ccc23)cc1` .
Resp: < 100 nM

Req: What measured IC50 goes with `Cc1cc2c(o1)-c1c(c(-c3ccc(O)cc3)nc3[nH]nc(C)c13)C2=O` ?
Resp: < 100 nM

Req: Find the recorded IC50 belonging to `CC(=O)Oc1ccc(-c2nc3c(c(C)nn3C(C)=O)c3c2c(=O)[nH]c2cc(N4CCNCC4)ccc23)cc1` and report it.
Resp: < 100 nM

Req: I'd like to know its IC50. The compound in question is `Nc1n[nH]c2nc(-c3ccc(O)cc3)c3c(=O)n(O)c4ccccc4c3c12`
Resp: < 100 nM

meta.source: patent US9085575B2
